Give pEC50 for every item shown.
- Measured on: RORγt-LBD (Homo sapiens, UniProt P51449)
- Sequence (P51449 269-508 limits assumed): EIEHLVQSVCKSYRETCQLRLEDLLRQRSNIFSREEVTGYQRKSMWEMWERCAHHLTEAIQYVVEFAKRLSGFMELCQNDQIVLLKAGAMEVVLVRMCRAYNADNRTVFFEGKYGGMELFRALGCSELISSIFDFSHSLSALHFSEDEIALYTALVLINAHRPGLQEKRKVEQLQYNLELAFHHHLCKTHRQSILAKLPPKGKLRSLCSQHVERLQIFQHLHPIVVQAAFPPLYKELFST
- Experiment: Time-resolved fluorescence resonance energy-transfer assay (TR-FRET), co-activator peptide recruitment
- Condition parameters: His-RORγt-LBD 30 nM, SRC peptide 500 nM; agonistic activity; averages of one or more measurements; read-out: TR-FRET Biochemical EC50/
Numbers only, as −log10 of the molar value.

Illustrative cases are given below, each with its answer.
C/C(=C\c1ccc2c(c1)N(S(=O)(=O)c1cccc(C(F)(F)F)c1)C[C@@H]1CN(CC(C)(C)O)CCN21)c1c(F)cccc1Cl: 7.55
CC(C)OC(=O)OCOC(=O)CN1CCN2c3ccc(/C=C/c4c(Cl)cccc4C(F)(F)F)cc3N(S(=O)(=O)c3cccc(C(F)(F)F)c3)C[C@@H]2C1: 8.09
C/C(=C\c1ccc2c(c1)N(S(=O)(=O)c1cccc(C(F)(F)F)c1)C[C@@H]1CN(CC(=O)OC(C)C)CCN21)c1c(F)cccc1Cl: 7.97
C/C(=C\c1ccc2c(c1)N(S(=O)(=O)c1cccc(C(F)(F)F)c1)C[C@@H]1CN(C(N)=O)CCN21)c1c(F)cccc1Cl: 7.60

Please give pEC50 for each item listed below.
1. CC(CO)(CO)N1CCN2c3ccc(-c4cc(F)cc(OC(F)F)c4)cc3N(S(=O)(=O)c3cccc(C(F)(F)F)c3)C[C@@H]2C1
2. O=S(=O)(c1cccc(C(F)(F)F)c1)N1C[C@@H]2CNCCN2c2ccc(/C=C/c3c(Cl)cccc3C(F)(F)F)cc21
3. CC(=O)N1CCN2c3ccc(/C=C/c4c(Cl)cccc4C(F)(F)F)cc3N(S(=O)(=O)c3cccc(C(F)(F)F)c3)C[C@@H]2C1
4. C[C@@]1(OCCC(N)=O)CCN2c3ccc(-c4cc(F)cc(OC(F)F)c4)cc3N(S(=O)(=O)c3cccc(C(F)(F)F)c3)C[C@@H]2C1

1: 7.37; 2: 7.66; 3: 7.52; 4: 7.01

Please give pEC50 for each item listed below.
1. O=S(=O)(c1cccc(C(F)(F)F)c1)N1C[C@@H]2CCCN2c2ccc(-c3cc(F)cc(OC(F)F)c3)cc21
2. C/C(=C\c1ccc2c(c1)N(S(=O)(=O)c1cccc(C(F)(F)F)c1)C[C@@H]1CN(S(N)(=O)=O)CCN21)c1c(F)cccc1Cl
3. O=C(O)CN1CCN2c3ccc(-c4cc(F)cc(OC(F)F)c4)cc3N(S(=O)(=O)c3cccc(C(F)(F)F)c3)C[C@@H]2C1
4. NC(=O)C1(N2CCN3c4ccc(/C=C/c5c(Cl)cccc5C(F)(F)F)cc4N(S(=O)(=O)c4cccc(C(F)(F)F)c4)C[C@@H]3C2)CCC1
5. CS(=O)(=O)N1CCN2c3ccc(/C=C/c4c(Cl)cccc4C(F)(F)F)cc3N(S(=O)(=O)c3cccc(C(F)(F)F)c3)C[C@@H]2C1

1: 7.55; 2: 7.47; 3: 7.94; 4: 7.67; 5: 7.53

Reported pEC50, molecule `N#Cc1cc(Cl)cc(-c2ccc3c(c2)N(S(=O)(=O)c2cccc(C(F)(F)F)c2)C[C@@H]2CN(CC(=O)O)CCN32)c1` : ____
7.43

---

- Measured on: RORγt (Homo sapiens, UniProt P51449)
- Construct: The plasmid of pFN26A-RORγt-LBD and pG14.35 (Promega, Cat. No. E1370) were co-transfected into HEK 293 cells; expressed in transfected cells; host or cells: HEK 293 cells (Cat. No. GNHu18)
- Experiment: RORγt cellular reporter gene detection assay;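 also: Ursolic Acid added as 5 µL of 20 µM medium per well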
- Type: cell-based
- Condition parameters: upper activation limit; HEK 293 cells, in presence of antagonist Ursolic acid, 24 hrs
We'd kindly ask you to apply these Cellular Reporter Assay Amax classes: Low = under 3, Medium = from 3 up to 4, High = 4 and over

Worked cases, answers included:
C/C(=C\c1ccc2c(c1)N(S(=O)(=O)c1cccc(C(F)(F)F)c1)C[C@@H]1CN(CC(C)(C)O)CCN21)c1c(F)cccc1Cl [Example 82]: High
C/C(=C\c1ccc2c(c1)N(S(=O)(=O)c1cccc(C(F)(F)F)c1)C[C@H](CCC(=O)O)N2C)c1c(F)cccc1Cl [Example 3]: High
C/C(=C\c1ccc2c(c1)N(S(=O)(=O)c1cccc(C(F)(F)F)c1)C[C@@H]1CN(C(N)=S)CCN21)c1c(F)cccc1Cl [Example 63]: High
CC(C)(C)OC(=O)C(C)(C)N1CCN2c3ccc(-c4cc(F)cc(OC(F)F)c4)cc3N(S(=O)(=O)c3cccc(C(F)(F)F)c3)C[C@@H]2C1 [Example 51]: Low
C[C@@]1(OCCC(=O)O)CCN2c3ccc(-c4cc(F)cc(OC(F)F)c4)cc3N(S(=O)(=O)c3cccc(C(F)(F)F)c3)C[C@@H]2C1 [Example 113]: Low
C/C(=C\c1ccc2c(c1)N(S(=O)(=O)c1cccc(C(F)(F)F)c1)C[C@@H]1CN(C(C)(C)C(=O)O)CCN21)c1c(F)cccc1Cl [Example 56]: Medium
CN1c2ccc(/C=C/c3c(Cl)cccc3C(F)(F)F)cc2N(S(=O)(=O)c2cccc(C(F)(F)F)c2)C[C@@H]1CCC(=O)O [Example 6]: High
NC(=S)N1CCN2c3ccc(-c4cc(F)cc(OC(F)F)c4)cc3N(S(=O)(=O)c3cccc(C(F)(F)F)c3)C[C@@H]2C1 [Example 64]: Low

Which of the defined bands does the recorded Cellular Reporter Assay Amax of O=S(=O)(c1cccc(C(F)(F)F)c1)N1C[C@@H]2CNCCN2c2ccc(-c3cc(F)cc(OC(F)F)c3)cc21 [Example 12] sit within?
High

Which of the defined bands does the recorded Cellular Reporter Assay Amax of COC(=O)C(C)N1CCN2c3ccc(C4=CC(C)(C)OC(C)(C)C4)cc3N(S(=O)(=O)c3cccc(C(F)(F)F)c3)C[C@@H]2C1 (stereo partly drawn) [Example 24] sit within?
Low

Which of the defined bands does the recorded Cellular Reporter Assay Amax of O=S(=O)(c1cccc(C(F)(F)F)c1)N1C[C@@H]2CN(C3COC3)CCN2c2ccc(/C=C/c3c(Cl)cccc3C(F)(F)F)cc21 [Example 32] sit within?
High

Which of the defined bands does the recorded Cellular Reporter Assay Amax of O=C(O)CN1CCN2c3ccc(-c4cc(F)cc(OC(F)F)c4)cc3N(S(=O)(=O)c3cccc(C(F)(F)F)c3)C[C@@H]2C1 [Example 9] sit within?
Medium

---

Give Cellular Reporter Assay Amax for every item shown.
- Measured on: RORγt (Homo sapiens, UniProt P51449)
- Construct: The plasmid of pFN26A-RORγt-LBD and pG14.35 (Promega, Cat. No. E1370) were co-transfected into HEK 293 cells; expressed in transfected cells; host or cells: HEK 293 cells (Cat. No. GNHu18)
- Experiment: RORγt cellular reporter gene detection assay;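 also: Ursolic Acid added as 5 µL of 20 µM medium per well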
- Assay type: cell-based
- Condition parameters: upper activation limit; HEK 293 cells, in presence of antagonist Ursolic acid, 24 hrs
One number for each entry.

C/C(=C\c1ccc2c(c1)N(S(=O)(=O)c1cccc(C(F)(F)F)c1)C[C@@H]1CN(CC(=O)O)CCN21)c1c(F)cccc1Cl [Example 21]: 5.5
CCOC(=O)CN1CCN2c3ccc(/C=C/c4c(Cl)cccc4C(F)(F)F)cc3N(S(=O)(=O)c3cccc(C(F)(F)F)c3)C[C@@H]2C1 [Example 46]: 4.0
CC1(C)C=C(c2ccc3c(c2)N(S(=O)(=O)c2cccc(C(F)(F)F)c2)C[C@@H]2CN(CC(=O)O)CCN32)CC(C)(C)O1 [Example 22]: 3.3
O=S(=O)(c1cccc(C(F)(F)F)c1)N1C[C@@H]2CC(F)CCN2c2ccc(-c3cc(F)cc(OC(F)F)c3)cc21 (stereo partly drawn) [Example 103]: 2.7
COC(=O)CN1CCN2c3ccc(/C=C/c4c(Cl)cccc4C(F)(F)F)cc3N(S(=O)(=O)c3cccc(OC(F)(F)F)c3)C[C@@H]2C1 [Example 85]: 1.8

Please give Cellular Reporter Assay Amax for each item listed below.
1. C/C(=C\c1ccc2c(c1)N(S(=O)(=O)c1cccc(C(F)(F)F)c1)C[C@@H]1CN(CC(=O)OC(C)C)CCN21)c1c(F)cccc1Cl [Example 48]
2. NC(=O)C1(N2CCN3c4ccc(-c5cc(F)cc(OC(F)F)c5)cc4N(S(=O)(=O)c4cccc(C(F)(F)F)c4)C[C@@H]3C2)CCC1 [Example 80]
3. CC(C)(C(=O)O)N1CCN2c3ccc(/C=C/c4c(Cl)cccc4C(F)(F)F)cc3N(S(=O)(=O)c3cccc(C(F)(F)F)c3)C[C@@H]2C1 [Example 55]
4. CS(=O)(=O)N1CCN2c3ccc(-c4cc(F)cc(OC(F)F)c4)cc3N(S(=O)(=O)c3cc(C(F)(F)F)cnc3OCCO)C[C@@H]2C1 [Example 89]
5. NC(=O)N1CCN2c3ccc(/C=C/c4c(Cl)cccc4C(F)(F)F)cc3N(S(=O)(=O)c3cccc(C(F)(F)F)c3)C[C@@H]2C1 [Example 60]
6. N#CC1(N2CCN3c4ccc(-c5cc(F)cc(OC(F)F)c5)cc4N(S(=O)(=O)c4cccc(C(F)(F)F)c4)C[C@@H]3C2)CCC1 [Example 77]

1: 1.9; 2: 3.4; 3: 2.7; 4: 2.7; 5: 2.8; 6: 3.7

Entry O=S(=O)(c1cccc(C(F)(F)F)c1)N1C[C@@H]2CN(C[C@H](O)CO)CCN2c2ccc(-c3cc(F)cc(OC(F)F)c3)cc21 [Example 40] , system RORγt (Homo sapiens, UniProt P51449): what Cellular Reporter Assay Amax was measured?
2.5
